Hey, just so you know, these numbers are from patent US20180334496A1.

# tested-target: T1, human complement factor D purified from serum (human, UniProt P00746 26-253)
# T1 construct: serum-purified (CompTech); also called hCFD-Comptech; CFD
# T1 sequence (P00746 26-253): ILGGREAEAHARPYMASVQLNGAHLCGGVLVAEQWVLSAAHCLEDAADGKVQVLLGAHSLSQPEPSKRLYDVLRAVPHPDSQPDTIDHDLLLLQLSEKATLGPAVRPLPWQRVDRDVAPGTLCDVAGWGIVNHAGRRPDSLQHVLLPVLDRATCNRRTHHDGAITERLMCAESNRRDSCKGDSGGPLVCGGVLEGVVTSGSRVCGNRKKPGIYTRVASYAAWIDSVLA
measure: Kd (nM)
I only need the number, in nM, no unit after it.

binder	recorded-number
KCD208 (antibody, V domains shown, chimeric) VH: EVQLQQSVAELVRPGASVKLSCTVSGFNIKNTYMHWVKQRPEQGLEWIGRIDPANGDTTYAPKFQGKATITADTSSNSAYLHLSRLTSEDTAIYYCSLYDYDGYWGQGTTLTVSS VL: EIVLTQSPALMAASPGEKVTITCSVSSSISSSSLHWYRQKSGTSPKPWIYGTSHLASGVPVRFSGSGSGTSYSLTISSMEAEDAATYYCQQWDTYPWTFGGGTKLEIK	0.451
KCD040 (antibody, V domains shown, chimeric) VH: EVQLQQSGAELVKPGASVKLSCTASDFNIKDTYMHWVMQRPEQGLEWIGKIDPANGNTEFDPKFQGKATITADTSSNTAYLQLTSLTSEDTAVYYCTRAMDYWGQGTSVTVSS VL: QIVLTQSPAIMSASPGEKVTMTCSAGSSVSYMYWYQQKPGSSPRVLIYDTSNLASGVPVRFSGSGSGTSYSLTISRMEAEDAATYYCQQWSNYPYTFGGGTKLEIK	79.1
KCD224 (antibody, V domains shown, chimeric) VH: QVQLKESGPGLVAPSQSLSITCTVSGFSLTSYGVDWIRQSPGKGLEWLGVIWGVGSTNYNSALKSRLSISKDNSKSQVFLKMNSLQTDDTAMYYCARSYDGSYWYFDVWGTGTTVTVSS VL: DIQMTQTTSSLSASLGDRVTISCRASQVISNYLNWYQQKPDGTVKLLIYYTSRLHSGVPSRFSGSGSGTDYSLTISNLEPEDIATYYCQQYSKLPYTFGSGTKLEIK	0.0156
KCD047 (antibody, V domains shown, chimeric) VH: EVQLQQSGAEFVKPGASVRLSCTASGFNIKDTYMHWVKQRPEQGLEWIGRIDPANGYTKDDPKFQGKATITADTSSNTAYLQLSSLTSEDTAVYYCASAMDYWGQGTSVTVSS VL: QIVLTQSPAVMSASPGEKVAMTCSASSSVTYMYWYQQKPGSSPRLLIYDTSNLASGVPVRFSGSGSGTSYSLTISRMEAEDAATYYCQQWSTYPFPFGSGTKLEIK	6.62

Task: Could you share which Kd value was measured for KCD044 (antibody, V domains shown, chimeric) VH: EVQLQQSGAELVKPGASVRLSCTASGFNIKHTYMHWVSQRPERGLEWIGKIDPANGNTKYDPKFQGKATITADTSSNTVYLQLSSLTSEDTAVYYCLNAMEYWGQGTSVTVSS VL: QSVLTQSPAIMSASPGEKVTMTCSANSSVSDMYWYQQRPGSSPRLLIYDTSNLASGVPVRFSGSGSGTSYSLTISRMEAEDAATYYCQQWSTYPWTFGGGTKLEIK ?
Result: 1.02
